Reference for the values: ChEMBL document CHEMBL4665850

method notes: Effect on transcription in rat PC12D cells transfected with pCRE-firefly luciferase and pRL-null-renilla luciferase assessed as renilla luciferase activity at 30 uM by dual luciferase reporter gene assay
Type: ADME, cell-based
readout kind: Activity

Below are worked cases with known answers.
input smiles: COc1ccc(-c2cc(=O)c3c(OC)cc(OC)cc3o2)cc1
Activity: Toxic
//
input smiles: COc1ccc(-c2oc3cc(OC)cc(O)c3c(=O)c2OC)cc1
Activity: Non-Toxic
//
input smiles: COc1cc(OC)c2c(=O)cc(-c3ccccc3)oc2c1
Activity: Toxic
//
input smiles: COc1cc(OC)c2c(=O)c(OC)c(-c3ccc(OC)c(OC)c3)oc2c1
Activity: Non-Toxic
//
input smiles: COc1cc(O)c2c(=O)c(OC)c(-c3ccc(OC)c(OC)c3)oc2c1
Activity: Non-Toxic

Task: Fill in the blank: the reported Activity of COc1cc(O)c2c(=O)c(OC)c(-c3ccccc3)oc2c1 is ____.
Output: Non-Toxic

Task: Fill in the blank: the reported Activity of COc1cc(OC)c2c(=O)cc(-c3ccc(OC)c(OC)c3)oc2c1 is ____.
Output: Toxic

Task: Fill in the blank: the reported Activity of COc1ccc(-c2cc(=O)c3c(O)cc(OC)cc3o2)cc1 is ____.
Output: Non-Toxic

Task: Fill in the blank: the reported Activity of COc1cc(O)c2c(=O)cc(-c3ccccc3)oc2c1 is ____.
Output: Non-Toxic
